# Tested On: Human Fc (human)
# Test: ELISA, negative control
Observed Property: optical density (OD)
Numeric only. Scale: OD

Binder	optical density [OD]
369_E12 (antibody, V domains shown) VH: EVQLLESGGGLVQPGGSLRLSCAASGFTFSSYGMHWVRQAPGKGLEWVASINYNSGYTSYADSVKGRFTISRDNSKNTLYLQMNSLRAEDTAVYYCARSANWHDTALDYWGQGTLVTVSS VL: DIQMTQSPSSLSASVGDRVTITCRASQSIISYLNWYQQKPGKAPKLLIYAATSRASGVPSRFSGSGSGTDFTLTISSLQPEDFATYYCQQSYESPLTFGGGTKVEIK	0.452

# evaluate next
### Prompt What measured optical density goes with 373_B10 (antibody, V domains shown) VH: EVQLLESGGGLVQPGGSLRLSCAASGFTFDSYGMNWVRQAPGKGLEWVSNINYNGGYTSYADSVKGRFTISRDNSKNTLYLQMNSLRAEDTAVYYCARSANWHDTALDYWGQGTLVTVSS VL: DIQMTQSPSSLSASVGDRVTITCRASQSILSYLNWYQQKPGKAPKLLIYAATSRASGVPSRFSGSGSGTDFTLTISSLQPEDFATYYCQQSYDLPLTFGGGTKVEIK ?
### Response 0.174

Just for reference, patent US20210380703A1 is where these values come from.
